Exercise: for every item that follows, state its recorded binding ratio (Analyte 2 / Analyte 1).
Biological target: T1, His-tagged human IGF1R protein (ACRO Biosystems Inc., Cat #: IGR-H5229) (human, UniProt P08069 31-932)
T1 construct: Bought protein; also called hIGF1R-His; not shown: His tag
T1 sequence (P08069 31-932): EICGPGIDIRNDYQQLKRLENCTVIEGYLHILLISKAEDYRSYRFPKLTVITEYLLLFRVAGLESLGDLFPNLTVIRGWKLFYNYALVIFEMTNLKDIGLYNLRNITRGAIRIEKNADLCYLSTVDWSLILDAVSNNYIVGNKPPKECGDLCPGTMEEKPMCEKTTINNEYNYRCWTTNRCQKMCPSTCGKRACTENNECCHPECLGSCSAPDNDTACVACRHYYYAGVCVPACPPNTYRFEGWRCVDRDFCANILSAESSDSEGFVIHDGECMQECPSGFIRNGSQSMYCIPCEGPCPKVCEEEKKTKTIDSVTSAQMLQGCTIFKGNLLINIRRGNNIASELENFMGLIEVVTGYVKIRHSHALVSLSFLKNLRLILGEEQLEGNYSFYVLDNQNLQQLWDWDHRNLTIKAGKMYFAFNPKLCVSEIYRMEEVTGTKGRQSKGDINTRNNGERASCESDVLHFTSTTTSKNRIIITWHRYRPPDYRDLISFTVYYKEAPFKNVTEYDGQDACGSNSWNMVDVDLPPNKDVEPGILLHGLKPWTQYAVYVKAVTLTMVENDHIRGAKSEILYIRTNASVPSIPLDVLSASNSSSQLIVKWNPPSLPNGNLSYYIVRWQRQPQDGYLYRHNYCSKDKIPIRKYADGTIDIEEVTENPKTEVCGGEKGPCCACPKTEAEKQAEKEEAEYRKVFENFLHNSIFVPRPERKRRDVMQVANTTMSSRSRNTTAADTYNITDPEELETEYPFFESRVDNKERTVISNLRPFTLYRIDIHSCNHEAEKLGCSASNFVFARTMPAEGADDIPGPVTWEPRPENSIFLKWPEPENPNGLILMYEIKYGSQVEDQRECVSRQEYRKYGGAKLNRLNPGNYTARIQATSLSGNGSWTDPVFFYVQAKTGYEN
Assay: SPR (Biacore 8K) on captured hIGF1R-His, binder injected second (Analyte 2); competitor injected first (Analyte 1): 10G1
Answers are plain numbers.

Please give binding ratio (Analyte 2 / Analyte 1), item by item, for the list that follows.
1. anti-IGF1R antibody 10G1 (antibody, human IgG1, V domains shown) VH: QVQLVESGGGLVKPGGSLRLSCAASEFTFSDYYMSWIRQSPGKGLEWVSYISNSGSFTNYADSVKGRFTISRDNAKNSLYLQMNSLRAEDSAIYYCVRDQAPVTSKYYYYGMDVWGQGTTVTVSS VL: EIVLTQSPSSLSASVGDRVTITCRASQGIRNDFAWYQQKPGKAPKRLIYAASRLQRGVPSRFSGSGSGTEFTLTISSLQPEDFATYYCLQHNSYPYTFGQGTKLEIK
2. anti-IGF1R antibody 12A4 (antibody, V domains shown) VH: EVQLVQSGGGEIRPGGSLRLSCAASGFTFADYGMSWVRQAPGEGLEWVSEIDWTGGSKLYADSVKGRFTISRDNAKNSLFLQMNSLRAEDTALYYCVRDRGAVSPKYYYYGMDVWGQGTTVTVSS VL: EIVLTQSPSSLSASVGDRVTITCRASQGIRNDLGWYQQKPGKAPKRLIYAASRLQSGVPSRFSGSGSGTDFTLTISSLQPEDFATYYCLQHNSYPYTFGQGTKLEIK
3. anti-IGF1R antibody 12D1 (antibody, human IgG1, V domains shown) VH: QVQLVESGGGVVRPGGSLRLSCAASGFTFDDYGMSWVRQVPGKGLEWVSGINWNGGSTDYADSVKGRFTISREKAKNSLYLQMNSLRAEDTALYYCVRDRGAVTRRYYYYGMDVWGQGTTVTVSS VL: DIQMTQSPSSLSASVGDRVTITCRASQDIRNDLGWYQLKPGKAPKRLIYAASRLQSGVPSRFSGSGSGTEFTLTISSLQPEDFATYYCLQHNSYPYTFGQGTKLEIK
4. anti-IGF1R antibody 10D1 (antibody, human IgG1, V domains shown) VH: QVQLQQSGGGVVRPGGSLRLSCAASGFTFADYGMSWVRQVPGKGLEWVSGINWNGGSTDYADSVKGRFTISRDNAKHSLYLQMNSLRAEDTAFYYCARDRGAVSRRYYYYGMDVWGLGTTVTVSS VL: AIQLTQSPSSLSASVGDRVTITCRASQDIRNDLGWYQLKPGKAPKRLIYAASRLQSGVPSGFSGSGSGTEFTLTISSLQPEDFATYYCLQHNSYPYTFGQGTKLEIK

-0.01
-0.01
0
0.02
